The origin of these recorded values is paper PMC12057336.

assay: Tissue distribution after i.g. or i.v. linezolid in control, CCl4-induced and 5/6 Nx rats; format: in vivo, rat; settings: rat, small intestine, iv, 25 mg/kg, i.v. 25 mg/kg linezolid; 4 h; 5/6 Nx rats; read-out: Tissue/plasma concentration ratio, Small intestine

Smiles notation | Kp at 4 h
CC(=O)NC[C@H]1CN(c2ccc(N3CCOCC3)c(F)c2)C(=O)O1 | 0.73

====

assay: Tissue distribution after i.g. or i.v. linezolid in control, CCl4-induced and 5/6 Nx rats; type: in vivo, rat; details: rat, lung, oral, 63 mg/kg, i.g. 63 mg/kg linezolid; 1 h; 5/6 Nx rats; read-out: Tissue/plasma concentration ratio, Lung

Compound | Kp at 1 h
CC(=O)NC[C@H]1CN(c2ccc(N3CCOCC3)c(F)c2)C(=O)O1 [Linezolid] | 0.94
